tested on: SK-MEL-5; assay: Concentration which reduced cell growth to 50 % of level against SK-MEL-5 melanoma cell line; assay type: functional; settings: Homo sapiens
Listed below: GI50 values for each entry.
recorded.metric: GI50 (µM)

>>> meas_value("Cc1cc(C)c2c(O)cc(-c3ccc(Cl)cc3)nc2n1")
14.1
>>> meas_value("Oc1cc(-c2ccc(F)cc2)nc2ncccc12")
30.2
>>> meas_value("Cc1ccnc2nc(-c3ccc(F)cc3)cc(O)c12")
16.2
>>> meas_value("COc1ccc(-c2cc(O)c3ccc(C)nc3n2)cc1")
47.9
>>> meas_value("COc1ccccc1-c1cc(O)c2c(C)ccnc2n1")
22.4
>>> meas_value("Oc1cc(-c2ccc(F)cc2)nc2ncc(Cl)cc12")
6.61
>>> meas_value("COc1ccccc1-c1cc(O)c2c(C)cc(C)nc2n1")
33.9
>>> meas_value("Oc1cc(-c2ccc(Cl)cc2)nc2ncccc12")
28.8
>>> meas_value("COc1ccc(-c2cc(O)c3c(C)cc(C)nc3n2)cc1")
17.8
>>> meas_value("COc1cccc(-c2cc(O)c3cc(C)cnc3n2)c1")
0.0257
>>> meas_value("COc1cccc(-c2cc(O)c3c(C)ccnc3n2)c1")
0.0224
>>> meas_value("Cc1ccnc2nc(-c3ccc(Cl)cc3)cc(O)c12")
3.47
>>> meas_value("Cc1cnc2nc(-c3ccc(Cl)cc3)cc(O)c2c1")
2.19

---

test system: 786-0; test: Concentration which reduced cell growth to 50 % of level against 786-0 renal cancer line; type: functional; conditions: Homo sapiens
recorded.metric: GI50 (µM)

>>> meas_value("Cc1ccnc2nc(-c3ccc(F)cc3)cc(O)c12")
33.9
>>> meas_value("COc1cccc(-c2cc(O)c3c(C)cc(C)nc3n2)c1")
0.437
>>> meas_value("COc1ccccc1-c1cc(O)c2cc(C)cnc2n1")
41.7
>>> meas_value("COc1cccc(-c2cc(O)c3cc(C)cnc3n2)c1")
0.0372
>>> meas_value("COc1cccc(-c2cc(O)c3cc(Cl)cnc3n2)c1")
0.427
>>> meas_value("Cc1ccnc2nc(-c3ccc(Cl)cc3)cc(O)c12")
3.98
>>> meas_value("Oc1cc(-c2ccc(F)cc2)nc2ncc(Cl)cc12")
32.4
>>> meas_value("Cc1cc(C)c2c(O)cc(-c3ccc(F)cc3)nc2n1")
79.4
>>> meas_value("COc1cccc(-c2cc(O)c3ccccc3n2)c1")
5.13
>>> meas_value("Cc1cnc2nc(-c3ccc(Cl)cc3)cc(O)c2c1")
6.31
>>> meas_value("Oc1cc(-c2ccc(F)cc2)nc2ncccc12")
44.7
>>> meas_value("Cc1ccc2c(O)cc(-c3ccc(Cl)cc3)nc2n1")
6.31
>>> meas_value("COc1ccc(-c2cc(O)c3c(C)ccnc3n2)cc1")
25.1

---

tested on: 786-0; test: Concentration which reduced cell growth to 50 % of level against 786-0 renal cancer line; assay type: functional; conditions: Homo sapiens
recorded.metric: GI50 (µM)

>>> meas_value("COc1cccc(-c2cc(O)c3cccnc3n2)c1")
0.0617
>>> meas_value("Cc1ccc2c(O)cc(-c3ccc(F)cc3)nc2n1")
41.7
>>> meas_value("COc1ccccc1-c1cc(O)c2cccnc2n1")
36.3
>>> meas_value("COc1cccc(-c2cc(=O)c3ccc(C)nc3[nH]2)c1")
0.0537
>>> meas_value("COc1cccc(-c2cc(O)c3c(C)ccnc3n2)c1")
0.0513
>>> meas_value("Oc1cc(-c2ccc(Cl)cc2)nc2ncccc12")
33.9
>>> meas_value("Cc1cnc2nc(-c3ccc(F)cc3)cc(O)c2c1")
32.4

---

molecular target: Tubulin alpha chain (Sus scrofa) (UniProt P02550); assay: Inhibition of colchicine binding and evaluated only when polymerization IC50 <=1 uM; type: functional
Sequence (P02550 whole entry, looked up): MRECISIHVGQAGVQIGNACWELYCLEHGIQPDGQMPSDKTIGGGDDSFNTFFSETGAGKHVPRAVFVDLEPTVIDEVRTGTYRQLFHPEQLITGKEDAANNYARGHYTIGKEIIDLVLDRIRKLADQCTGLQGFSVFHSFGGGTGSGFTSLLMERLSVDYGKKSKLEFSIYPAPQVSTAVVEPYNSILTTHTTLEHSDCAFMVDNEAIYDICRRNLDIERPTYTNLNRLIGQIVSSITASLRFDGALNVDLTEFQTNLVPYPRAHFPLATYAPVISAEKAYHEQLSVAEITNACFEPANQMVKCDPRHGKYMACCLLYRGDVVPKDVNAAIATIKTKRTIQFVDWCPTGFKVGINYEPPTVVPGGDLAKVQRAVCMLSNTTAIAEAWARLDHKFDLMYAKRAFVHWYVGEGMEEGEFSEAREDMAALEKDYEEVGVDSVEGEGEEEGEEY
recorded.metric: inhibition (%)

>>> meas_value("COc1cccc(-c2cc(=O)c3ccc(C)nc3[nH]2)c1")
29
>>> meas_value("COc1cc([C@@H]2c3cc4c(cc3[C@H](O)[C@H]3COC(=O)[C@H]23)OCO4)cc(OC)c1OC [PODOFILOX]")
76
>>> meas_value("COc1cccc(-c2cc(O)c3cc(C)cnc3n2)c1")
31
>>> meas_value("COc1cccc(-c2cc(O)c3cccnc3n2)c1")
27
>>> meas_value("COc1cccc(-c2cc(O)c3c(C)cc(C)nc3n2)c1")
22
>>> meas_value("COc1cccc(-c2cc(O)c3c(C)ccnc3n2)c1")
28
>>> meas_value("COc1cccc(-c2cc(O)c3cc(Cl)cnc3n2)c1")
35

---

tested on: SK-MEL-5; assay: Concentration which reduced cell growth to 50 % of level against SK-MEL-5 melanoma cell line; type: functional; conditions: Homo sapiens
Form field: GI50 (one value per entry).
recorded.metric: GI50 (µM)

>>> meas_value("COc1cccc(-c2cc(O)c3cccnc3n2)c1")
0.0537
>>> meas_value("Cc1ccc2c(O)cc(-c3ccc(Cl)cc3)nc2n1")
4.37
>>> meas_value("COc1ccccc1-c1cc(O)c2cc(C)cnc2n1")
20.4
>>> meas_value("COc1cccc(-c2cc(=O)c3ccc(C)nc3[nH]2)c1")
0.0339
>>> meas_value("COc1ccccc1-c1cc(O)c2ccc(C)nc2n1")
51.3
>>> meas_value("COc1ccc(-c2cc(O)c3cccnc3n2)cc1")
34.7
>>> meas_value("Cc1cnc2nc(-c3ccc(F)cc3)cc(O)c2c1")
21.9
>>> meas_value("Cc1ccc2c(O)cc(-c3ccc(F)cc3)nc2n1")
31.6
>>> meas_value("COc1cccc(-c2cc(O)c3c(C)cc(C)nc3n2)c1")
0.288
>>> meas_value("Cc1cc(C)c2c(O)cc(-c3ccc(F)cc3)nc2n1")
26.3
>>> meas_value("COc1ccc(-c2cc(O)c3cc(C)cnc3n2)cc1")
3.72
>>> meas_value("COc1cccc(-c2cc(O)c3cc(Cl)cnc3n2)c1")
0.126
>>> meas_value("COc1ccccc1-c1cc(O)c2cccnc2n1")
31.6
>>> meas_value("COc1ccc(-c2cc(O)c3c(C)ccnc3n2)cc1")
3.89

---

tested on: PC-3; assay: Concentration which reduced cell growth to 50 % of level against PC-3 prostate cancer line; assay type: functional; conditions: Homo sapiens
recorded.metric: log10 GI50 (log10 of the value in µM)

>>> meas_value("COc1ccc(-c2cc(O)c3c(C)ccnc3n2)cc1")
1.26
>>> meas_value("COc1ccc(-c2cc(O)c3c(C)cc(C)nc3n2)cc1")
1.38
>>> meas_value("Oc1cc(-c2ccc(F)cc2)nc2ncccc12")
1.66
>>> meas_value("Cc1ccc2c(O)cc(-c3ccc(Cl)cc3)nc2n1")
0.22
>>> meas_value("Cc1cc(C)c2c(O)cc(-c3ccc(Cl)cc3)nc2n1")
0.80
>>> meas_value("Cc1ccnc2nc(-c3ccc(F)cc3)cc(O)c12")
1.71
>>> meas_value("Cc1ccc2c(O)cc(-c3ccc(F)cc3)nc2n1")
1.32
>>> meas_value("COc1cccc(-c2cc(O)c3cc(Cl)cnc3n2)c1")
-0.86
>>> meas_value("COc1ccccc1-c1cc(O)c2cccnc2n1")
1.47
>>> meas_value("Oc1cc(-c2ccc(Cl)cc2)nc2ncccc12")
1.68
>>> meas_value("COc1ccccc1-c1cc(O)c2c(C)cc(C)nc2n1")
1.68
>>> meas_value("COc1ccccc1-c1cc(O)c2cc(C)cnc2n1")
1.43
>>> meas_value("COc1cccc(-c2cc(O)c3c(C)ccnc3n2)c1")
-1.58

---

test system: 786-0; assay: Concentration which reduced cell growth to 50 % of level against 786-0 renal cancer line; format: functional; details: Homo sapiens
recorded.metric: GI50 (µM)

>>> meas_value("COc1ccccc1-c1cc(O)c2c(C)ccnc2n1")
60.3
>>> meas_value("COc1ccc(-c2cc(O)c3c(C)cc(C)nc3n2)cc1")
58.9
>>> meas_value("Cc1cc(C)c2c(O)cc(-c3ccc(Cl)cc3)nc2n1")
21.4
>>> meas_value("COc1ccc(-c2cc(O)c3cc(C)cnc3n2)cc1")
5.13
>>> meas_value("COc1ccc(-c2cc(O)c3cccnc3n2)cc1")
56.2

---

test system: PC-3; experiment: Concentration which reduced cell growth to 50 % of level against PC-3 prostate cancer line; assay type: functional; details: Homo sapiens
Rule: measured GI50 below 3 µM gets Condition met; anything equal to or greater than 3 µM gets Condition not met.

>>> label_class("Cc1ccnc2nc(-c3ccc(Cl)cc3)cc(O)c12")
"Condition met"
>>> label_class("COc1cccc(-c2cc(=O)c3ccc(C)nc3[nH]2)c1")
"Condition met"
>>> label_class("COc1cccc(-c2cc(O)c3cccnc3n2)c1")
"Condition met"
>>> label_class("COc1ccc(-c2cc(O)c3ccc(C)nc3n2)cc1")
"Condition not met"
>>> label_class("COc1cccc(-c2cc(O)c3c(C)cc(C)nc3n2)c1")
"Condition met"
>>> label_class("Cc1cnc2nc(-c3ccc(Cl)cc3)cc(O)c2c1")
"Condition met"
>>> label_class("COc1ccccc1-c1cc(O)c2ccc(C)nc2n1")
"Condition not met"
>>> label_class("Cc1cnc2nc(-c3ccc(F)cc3)cc(O)c2c1")
"Condition not met"
>>> label_class("COc1ccc(-c2cc(O)c3cccnc3n2)cc1")
"Condition not met"
>>> label_class("COc1ccc(-c2cc(O)c3cc(C)cnc3n2)cc1")
"Condition not met"
>>> label_class("Oc1cc(-c2ccc(F)cc2)nc2ncc(Cl)cc12")
"Condition not met"
>>> label_class("COc1ccccc1-c1cc(O)c2c(C)ccnc2n1")
"Condition not met"
>>> label_class("Cc1cc(C)c2c(O)cc(-c3ccc(F)cc3)nc2n1")
"Condition not met"
>>> label_class("COc1cccc(-c2cc(O)c3cc(C)cnc3n2)c1")
"Condition met"
